Recorded values, source patent US20260042763A1.

- EXPERIMENTAL SYSTEM: human isoforms of GABAA (α3ß2γ2) receptors (Homo sapiens, UniProt P18507+P34903)
- Construct: expressed in transfected cells
- Sequence (P34903 29-492): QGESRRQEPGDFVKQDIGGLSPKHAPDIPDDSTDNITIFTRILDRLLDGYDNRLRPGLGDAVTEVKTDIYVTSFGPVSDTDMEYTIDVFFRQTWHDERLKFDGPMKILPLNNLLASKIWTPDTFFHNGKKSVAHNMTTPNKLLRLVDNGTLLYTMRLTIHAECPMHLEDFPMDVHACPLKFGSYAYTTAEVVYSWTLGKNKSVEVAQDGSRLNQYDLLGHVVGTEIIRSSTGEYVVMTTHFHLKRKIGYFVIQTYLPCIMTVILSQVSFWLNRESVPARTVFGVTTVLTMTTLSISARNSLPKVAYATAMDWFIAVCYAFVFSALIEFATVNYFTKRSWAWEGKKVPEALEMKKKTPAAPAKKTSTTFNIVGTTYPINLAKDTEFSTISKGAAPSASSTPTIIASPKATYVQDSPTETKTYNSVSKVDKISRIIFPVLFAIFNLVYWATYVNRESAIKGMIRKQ
- Sequence (P47870 25-512 partner limits assumed): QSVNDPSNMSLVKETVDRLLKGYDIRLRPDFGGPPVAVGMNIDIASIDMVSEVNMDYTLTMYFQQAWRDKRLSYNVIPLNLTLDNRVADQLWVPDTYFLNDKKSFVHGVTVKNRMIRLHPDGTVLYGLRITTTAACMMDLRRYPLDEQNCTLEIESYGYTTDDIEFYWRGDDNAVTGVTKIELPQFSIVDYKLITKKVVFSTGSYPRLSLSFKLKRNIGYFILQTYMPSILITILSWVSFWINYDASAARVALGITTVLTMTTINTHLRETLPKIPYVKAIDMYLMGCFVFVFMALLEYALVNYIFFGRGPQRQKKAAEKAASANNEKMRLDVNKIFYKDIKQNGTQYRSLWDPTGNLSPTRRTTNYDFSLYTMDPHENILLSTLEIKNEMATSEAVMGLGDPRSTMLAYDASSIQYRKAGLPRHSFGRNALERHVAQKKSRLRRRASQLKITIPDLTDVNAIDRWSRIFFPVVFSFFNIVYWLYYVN
- Sequence (P18507 40-475): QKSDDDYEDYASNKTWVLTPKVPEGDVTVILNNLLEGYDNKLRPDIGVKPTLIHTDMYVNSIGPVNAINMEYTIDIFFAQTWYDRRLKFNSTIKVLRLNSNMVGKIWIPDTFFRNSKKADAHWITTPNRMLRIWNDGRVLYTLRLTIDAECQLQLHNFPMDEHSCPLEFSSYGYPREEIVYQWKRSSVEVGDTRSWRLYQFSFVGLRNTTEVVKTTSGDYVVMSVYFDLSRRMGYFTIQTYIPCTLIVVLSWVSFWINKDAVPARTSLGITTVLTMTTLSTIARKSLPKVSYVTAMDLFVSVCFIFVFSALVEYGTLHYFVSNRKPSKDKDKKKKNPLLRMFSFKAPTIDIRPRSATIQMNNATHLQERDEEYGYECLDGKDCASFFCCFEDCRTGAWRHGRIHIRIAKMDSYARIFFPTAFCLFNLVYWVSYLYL
- TEST SUMMARY: Potentiation of GABA-evoked currents at GABAA (α3β2γ2) receptors, automated patch-clamp (QPatch), Example B1
- Type: cell-based
- COND: Emax of potentiation; Ltk cells expressing GABAA α3β2γ2; 2.0 μM GABA; whole-cell, holding potential −80 mV; read-out: Max %
// Emax lookup, one value per entry
PROPERTY: Emax

> print(dat)
                                    compound  property      result
 1  CC(C)CC1N=C(c2ccccc2F)c2cc(Cl)ccc2-n2cc(C(=O)O)nc21 (centres unmarked)      Emax  50 to 100%
 2  CS(=N)(=O)CCNC(=O)c1cn2c(n1)CN=C(c1ccccc1F)c1cc(Cl)ccc1-2 (centres unmarked)      Emax  50 to 100%
 3  O=C(O)c1cn2c(n1)CN=C(c1c(F)cccc1F)c1cc(Cl)ccc1-2      Emax  50 to 100%
 4  O=C(O)c1cn2c(n1)C[N+]([O-])=C(c1ccccc1F)c1cc(Cl)ccc1-2      Emax  50 to 100%
 5  O=C(O)c1cn2c(n1)CN=C(c1ccccc1F)c1cc(Cl)c(F)cc1-2      Emax      > 100%
 6  O=C(O)c1nc2n(c1-c1ccccc1)-c1ccc(Cl)cc1C(c1ccccc1F)=NC2      Emax      > 100%
 7  O=C(O)c1cn2c(n1)CN=C(c1ccccc1F)c1cc(Cl)cc(F)c1-2      Emax  50 to 100%
 8  O=C(O)c1cn2c(n1)CN=C(c1ccc(F)cc1F)c1cc(Cl)ccc1-2      Emax       < 50%
 9  O=C(O)c1nc2n(c1CN1CCOCC1)-c1ccc(Cl)cc1C(c1ccccc1F)=NC2      Emax      > 100%
10  COCCOCCOCCOCCOCCOCCOCCOCCNC(=O)c1cn2c(n1)CN=C(c1ccccc1F)c1cc(Cl)ccc1-2      Emax      > 100%
11  Cc1ccc2c(c1)C(c1ccccc1F)=NCc1nc(C(=O)O)cn1-2      Emax      > 100%
12  Cc1ccccc1C1=NCc2nc(C(=O)O)cn2-c2ccc(Cl)cc21      Emax      > 100%
13  NC(=O)[C@H](O)c1cn2c(n1)CN=C(c1ccccc1F)c1cc(Cl)ccc1-2      Emax      > 100%
14  O=C(O[C@@H]1O[C@H](C(=O)O)[C@@H](O)[C@H](O)[C@H]1O)c1cn2c(n1)CN=C(c1ccccc1F)c1cc(Cl)ccc1-2      Emax  50 to 100%
